Molecular target: Prostaglandin G/H synthase 1 (Homo sapiens, UniProt P23219)
Sequence (P23219 whole entry): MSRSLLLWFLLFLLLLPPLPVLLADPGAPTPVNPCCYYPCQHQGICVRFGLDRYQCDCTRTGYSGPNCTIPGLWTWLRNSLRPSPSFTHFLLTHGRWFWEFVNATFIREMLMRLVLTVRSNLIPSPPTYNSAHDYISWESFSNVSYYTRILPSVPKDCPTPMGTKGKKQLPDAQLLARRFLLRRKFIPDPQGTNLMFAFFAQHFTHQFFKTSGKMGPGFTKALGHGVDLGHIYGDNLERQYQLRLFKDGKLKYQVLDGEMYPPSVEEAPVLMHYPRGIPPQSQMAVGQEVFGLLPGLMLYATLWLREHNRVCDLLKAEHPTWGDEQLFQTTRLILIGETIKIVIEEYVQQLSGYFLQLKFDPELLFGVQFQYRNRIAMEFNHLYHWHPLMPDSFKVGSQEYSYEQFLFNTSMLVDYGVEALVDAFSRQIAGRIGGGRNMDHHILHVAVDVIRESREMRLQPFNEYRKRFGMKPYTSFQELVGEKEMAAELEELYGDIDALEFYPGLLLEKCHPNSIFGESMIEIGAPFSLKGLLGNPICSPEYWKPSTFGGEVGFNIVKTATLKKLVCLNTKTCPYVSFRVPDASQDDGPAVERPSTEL
Assay: Inhibition of COX1
Property: IC50 (µM)
Give the number; µM is assumed, so skip it.

The recorded IC50 for entry COc1ccc(/C=C/c2cc(O)cc(O)c2)cc1 [RESVERATROL 4'-METHYL ETHER] equals 25.8

Reported IC50 for `COc1ccc(/C(C)=C/c2cc(O)cc(O)c2)cc1OC` was 11.4

// `C/C(=C\c1ccc(C(F)(F)F)cc1)c1ccc(O)cc1` : IC50 value = 36.3

For this compound ( `CC/C(=C\c1cc(O)cc(O)c1)c1cccc(F)c1` ), measured IC50 is 3.5

Memo: `C/C(=C\c1ccc(O)cc1)c1cc(O)cc(O)c1` , reported IC50: 1.9

Reported IC50 ( COc1cc(/C=C/c2ccc(O)cc2)cc(OC)c1 [PTEROSTILBENE] ) = 0.7

Entry `COc1ccc(/C=C/c2cccc(F)c2)cc1OC` — recorded IC50 = 3.2

// sample `CN(C)c1ccc(/C=C/c2cc(O)cc(O)c2)cc1` , its IC50 was 17.8

Item: `Oc1cc(O)cc(/C=C/c2cccc(F)c2)c1` | IC50: 16.5

Record `CC/C(=C\c1ccc(OC)c(OC)c1)c1cc(O)cc(O)c1` . Reported IC50: 9.7

Briefly, IC50 measured for `COc1cc(/C=C(\C)c2ccc(C(F)(F)F)cc2)cc(OC)c1` : 32.6

Value of measured IC50 for the entry `COc1ccc(/C=C(\C)c2cc(O)cc(O)c2)cc1OC` : 10.6

* * *

Biological target: Prostaglandin G/H synthase 2 (Homo sapiens)
Sequence (P35354 whole entry): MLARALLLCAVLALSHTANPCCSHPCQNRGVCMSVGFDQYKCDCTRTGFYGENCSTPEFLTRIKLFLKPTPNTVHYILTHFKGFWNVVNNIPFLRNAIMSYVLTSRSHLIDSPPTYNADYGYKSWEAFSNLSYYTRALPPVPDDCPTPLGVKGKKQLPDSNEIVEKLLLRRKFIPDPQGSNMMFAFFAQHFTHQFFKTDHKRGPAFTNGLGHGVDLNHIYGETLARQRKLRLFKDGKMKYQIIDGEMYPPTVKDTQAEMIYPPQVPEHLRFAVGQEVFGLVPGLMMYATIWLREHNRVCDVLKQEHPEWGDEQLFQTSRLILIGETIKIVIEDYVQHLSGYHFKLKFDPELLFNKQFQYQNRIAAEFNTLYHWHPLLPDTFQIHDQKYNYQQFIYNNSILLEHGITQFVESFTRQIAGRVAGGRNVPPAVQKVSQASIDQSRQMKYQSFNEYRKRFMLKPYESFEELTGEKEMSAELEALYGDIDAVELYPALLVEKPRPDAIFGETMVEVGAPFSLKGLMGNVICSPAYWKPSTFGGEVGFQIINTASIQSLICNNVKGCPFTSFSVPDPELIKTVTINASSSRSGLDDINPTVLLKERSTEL
Friendly reminder: IC50 below 2 µM is 1, at or above is -1.

Q: Please determine if `COc1ccc(/C=C/c2cc(O)cc(O)c2)cc1` is below 2 µM in terms of IC50.
Result: -1

Q: Answer whether the molecule `COc1cc(/C=C/c2ccc(O)cc2)cc(OC)c1` has IC50 strictly less than 2 µM
Result: 1

Q: Given the entry `COc1ccc(/C(C)=C/c2cc(O)cc(O)c2)cc1` , would its reported IC50 be below 2 µM?
Result: -1

Q: Lab note: IC50 threshold 2 µM. Does this molecule come in strictly under it? `C/C(=C\c1cc(O)cc(O)c1)c1ccc(O)cc1`
Result: 1

Q: IC50 strictly < 2 µM for this molecule? `C/C(=C\c1ccc(C(F)(F)F)cc1)c1ccc(O)cc1`
Result: 1

Q: Please determine if `CC/C(=C\c1cc(O)cc(O)c1)c1ccc2ccccc2c1` is below 2 µM in terms of IC50.
Result: -1

Q: Lab note: IC50 threshold 2 µM. Does this molecule come in strictly under it? `COc1cc(/C=C/c2ccc([N+](=O)[O-])cc2)cc(OC)c1`
Result: -1

Q: Answer whether the molecule `Oc1cc(O)cc(/C=C/c2cccc(F)c2)c1` has IC50 strictly less than 2 µM
Result: 1

Q: For this molecule, is IC50 lower than 2 µM? `COc1ccc(/C=C(\C)c2cc(O)cc(O)c2)cc1OC`
Result: -1

Source of measurements: ChEMBL document CHEMBL1140997
